target: UAP56 (DDX39B), recombinant wild type (human, UniProt Q13838 1-428); test: grating-coupled interferometry
Sequence (Q13838 whole entry): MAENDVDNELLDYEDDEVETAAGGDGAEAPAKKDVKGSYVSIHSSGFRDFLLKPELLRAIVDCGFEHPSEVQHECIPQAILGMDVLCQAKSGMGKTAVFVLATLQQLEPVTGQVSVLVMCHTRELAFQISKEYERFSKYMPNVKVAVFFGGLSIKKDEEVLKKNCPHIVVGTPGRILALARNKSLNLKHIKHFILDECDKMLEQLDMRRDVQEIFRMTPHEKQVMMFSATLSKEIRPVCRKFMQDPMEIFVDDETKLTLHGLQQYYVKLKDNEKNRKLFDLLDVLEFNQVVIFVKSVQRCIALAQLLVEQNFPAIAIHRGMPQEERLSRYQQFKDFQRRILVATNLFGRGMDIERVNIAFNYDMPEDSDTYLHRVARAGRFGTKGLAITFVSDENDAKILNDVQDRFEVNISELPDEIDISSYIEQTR
No end group written: not given here.
readout_label: Kd (µM)
Express your answer in µM, writing the number without its unit.

Q. Given MDMSLDDII (also: biotin, position not given here) [ALYREF N-UBM peptide (GCI)] , respond with its Kd.
A. 24
